Biological target: recombinant FoccCSP protein (Frankliniella occidentalis, UniProt A0A0C5AYL1)
Sequence (A0A0C5AYL1 entry or part of it): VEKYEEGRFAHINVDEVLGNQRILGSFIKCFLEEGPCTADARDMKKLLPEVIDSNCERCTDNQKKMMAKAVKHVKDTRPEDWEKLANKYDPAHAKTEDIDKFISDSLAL
Test: biochemical
Type: binding
Conditions: competitive displacement of 1-NPN; 2 μM 1-NPN and 2 μM FoccCSP, ligands 2–300 μM, 50 mM Tris-HCl pH 7.4, 25°C; read-out: IC50

- compound: "CCCCCCCCC=O"
  IC50, µM: 79
- compound: "CC(C)=CCC[C@@H](C)CC=O"
  IC50, µM: 76.1
- compound: "COC(=O)c1ccncc1 [Methyl isonicotinate]"
  IC50, µM: 52
- compound: "COc1ccc(C=O)cc1"
  IC50, µM: 11.4

* * *

Target: recombinant FoccCSP protein (Frankliniella occidentalis, UniProt A0A0C5AYL1)
Test: biochemical
Assay type: binding
Collected IC50 values appear next to each entry.
parameter: IC50

- molecule: "C=CCc1ccc(O)c(OC)c1"
  measurement: "96.4 µM"
- molecule: "CCCCCC"
  measurement: "94.2 µM"
- molecule: "OCc1ccccc1"
  measurement: "119 µM"
- molecule: "CC12CCC(CC1)C(C)(C)O2"
  measurement: "92.4 µM"
- molecule: "O=Cc1ccccc1"
  measurement: "52.5 µM"
- molecule: "CCOC(=O)c1cccnc1 [Ethyl nicotinate]"
  measurement: "52 µM"
- molecule: "CC(=O)OCc1ccccc1 [Benzyl acetate]"
  measurement: "98.2 µM"
- molecule: "CCc1ccccc1"
  measurement: "63.4 µM"
- molecule: "C=CC(C)(O)CCC=C(C)C (stereo not drawn)"
  measurement: "85.6 µM"
- molecule: "CC(C)=CCC/C(C)=C/CO"
  measurement: "15.3 µM"
- molecule: "CC(C)=CCCC(C)CCO (stereo not drawn)"
  measurement: "75.8 µM"
- molecule: "COC(=O)c1ccccc1O [Methyl salicylate]"
  measurement: "35.2 µM"

FYI, the data here is from paper PMC4311994.
